Read-out: ABC Transporter (ABCB1), ABCB1 (gene 5243)
Assay: CLD_ABCB1_6hr: CellzDirect (CLD) Gene Expression Assay for ABC Transporter (ABCB1) at 6 hours (AID 2283659);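 further: hits raise ABCB1 transcript above the DMSO vehicle baseline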
Records with an inconclusive call do not appear. Activity calls are given as the source filed them. How the source made its calls: active means hit-call score of the fitted dose curve at least 0.9, where 1 is the maximum; inconclusive means response in the unintended direction; inactive means score below 0.9.
Quantity Name: outcome

The following compounds have reported results that may help.
Compound	Assay Value
CCOC(=O)COc1cc(-c2nn(C)c(OC(F)F)c2Cl)c(F)cc1Cl	inactive
COP(=O)(NC(C)=O)SC (stereo not given)	inactive
CCOP(=O)(OCC)Oc1cc(C)nc(C(C)C)n1	inactive
CC(C)N(C(=O)SCC(Cl)=C(Cl)Cl)C(C)C	inactive
C#CCC1=C(C)C(OC(=O)C2C(C=C(C)C)C2(C)C)CC1=O (stereo not given)	inactive

Prompt: Dear colleague, I am looking for the recorded outcome of the following compound: CC(C)=CC1C(C(=O)OCN2C(=O)C3=C(CCCC3)C2=O)C1(C)C (stereo not given)
Response: inactive

Prompt: Give the measured outcome of COc1ccc(C(=CC(=O)N2CCOCC2)c2ccc(Cl)cc2)cc1OC .
Response: inactive

Prompt: Entry under review: CCCCOC(=O)c1ccccc1C(=O)O . Reported outcome?
Response: inactive
